Data origin, for the record: paper PMC12340637

# SUBJECT_OF_TEST: OCT1 (SLC22A1) (Homo sapiens)
# Sequence (O15245 whole entry): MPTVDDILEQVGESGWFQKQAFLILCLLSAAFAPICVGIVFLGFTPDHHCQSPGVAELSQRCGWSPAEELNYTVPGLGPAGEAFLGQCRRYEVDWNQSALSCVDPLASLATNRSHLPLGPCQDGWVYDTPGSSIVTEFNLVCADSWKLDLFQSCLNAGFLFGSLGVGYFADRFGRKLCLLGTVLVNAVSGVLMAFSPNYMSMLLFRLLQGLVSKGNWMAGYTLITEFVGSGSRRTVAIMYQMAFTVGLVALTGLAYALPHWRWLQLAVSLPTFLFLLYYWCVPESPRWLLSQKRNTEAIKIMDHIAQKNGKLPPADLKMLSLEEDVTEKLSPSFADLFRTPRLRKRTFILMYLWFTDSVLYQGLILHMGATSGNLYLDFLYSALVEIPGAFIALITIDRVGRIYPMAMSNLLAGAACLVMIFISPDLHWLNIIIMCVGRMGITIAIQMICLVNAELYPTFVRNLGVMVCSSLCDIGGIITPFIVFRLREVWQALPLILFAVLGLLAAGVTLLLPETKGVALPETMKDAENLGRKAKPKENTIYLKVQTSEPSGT
# PROCEDURE_SUMMARY: Cellular uptake into OCT1-overexpressing HEK293 cells vs EV control cells (HPLC-MS/MS)
# MEASUREMENT_CONTEXT: uptake ratio ≥2 = notable transport
PROPERTY_MEASURED: substrate activity at OCT1 (in words)

> print(dat)
                       compound                val
1  NCCCCCO [5-amino-1-pentanol]  notable transport
2  NCCCCCCO [6-amino-1-hexanol]  notable transport

---

# SUBJECT_OF_TEST: MATE1 (SLC47A1) (Homo sapiens, UniProt Q96FL8)
# Sequence (Q96FL8 whole entry): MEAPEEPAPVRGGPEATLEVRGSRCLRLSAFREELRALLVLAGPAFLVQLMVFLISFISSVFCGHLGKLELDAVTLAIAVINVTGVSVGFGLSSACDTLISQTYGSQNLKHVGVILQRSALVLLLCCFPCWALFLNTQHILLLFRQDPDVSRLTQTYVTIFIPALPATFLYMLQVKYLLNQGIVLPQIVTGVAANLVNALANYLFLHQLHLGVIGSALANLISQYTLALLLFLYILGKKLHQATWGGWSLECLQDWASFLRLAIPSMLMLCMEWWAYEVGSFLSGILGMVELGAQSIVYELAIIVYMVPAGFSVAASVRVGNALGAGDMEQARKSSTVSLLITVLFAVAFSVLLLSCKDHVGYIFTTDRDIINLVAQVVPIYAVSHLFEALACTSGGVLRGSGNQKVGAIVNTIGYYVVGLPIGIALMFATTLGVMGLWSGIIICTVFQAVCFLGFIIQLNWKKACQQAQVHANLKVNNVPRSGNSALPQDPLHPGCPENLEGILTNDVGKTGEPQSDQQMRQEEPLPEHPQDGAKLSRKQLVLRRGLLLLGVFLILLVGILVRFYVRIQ
# PROCEDURE_SUMMARY: Cellular uptake into MATE1-overexpressing HEK293 cells vs EV control cells (HPLC-MS/MS)
# MEASUREMENT_CONTEXT: 2.5 μM substrate, 1 min, 30 mM NH4Cl preincubation, HEK293
Marks after values point to notes of the source that are not given here.
PROPERTY_MEASURED: uptake ratio MATE1 (transporter-overexpressing cells over EV control cells): mean (±SD, N)

> print(dat)
                                   compound              val
1                                    CC(C)N     1.4 (0.2, 3)
2                        CC(C)(C)[C@H](N)CO     0.7 (0.2, 3)
3  CC(N)CN(CC(C)N)CC(C)N (stereo not shown)             - ^d
4                                    CCCCCN  0.5 (0.2, 3) ^a
5                                   CCCCCCN     0.8 (0.2, 4)

May I ask what uptake ratio MATE1 (transporter-overexpressing cells over EV control cells): mean (±SD, N) has been recorded for CNCCCO ? 0.8 (0.2, 4)

Any idea what uptake ratio MATE1 (transporter-overexpressing cells over EV control cells): mean (±SD, N) was measured for CCN(CC)CC ? 0.8 (0.2, 3)

---

# SUBJECT_OF_TEST: OCT2 (SLC22A2) (Homo sapiens, UniProt O15244)
# PROCEDURE_SUMMARY: Cellular uptake into OCT2-overexpressing HEK293 cells vs EV control cells (HPLC-MS/MS)
# MEASUREMENT_CONTEXT: OCT2, net uptake, Michaelis–Menten
Marks after values point to notes of the source that are not given here.
PROPERTY_MEASURED: v max (±SEM)

Use the examples below as a reference point.
> print(dat)
                                   compound                                 val
1  CCC[C@@H](N)CO [(R)-(−)-2-amino-1-pentanol]  1453 (±179) ^a pmol/mg protein/min
2                                   NCCCCCO  14,996 (±2181) pmol/mg protein/min
3  CC[C@H](C)[C@H](N)CO [(S)-(+)-isoleucinol]     1303 (±287) pmol/mg protein/min

Quick one: v max (±SEM) for CCC[C@H](N)CO [(S)-(+)-2-amino-1-pentanol] ? 2342 (±290) ^a pmol/mg protein/min

Need v max (±SEM) of CC(C)[C@H](N)CO , thanks. 4970 (±967) pmol/mg protein/min

Can you share its v max (±SEM)? I mean this compound: CCN(CC)CC 1053 (±206) pmol/mg protein/min

Which value of v max (±SEM) has been reported for CC(N)CCCC(C)(C)O (stereo not shown) in the records? 9730 (±1210) pmol/mg protein/min

---

# SUBJECT_OF_TEST: OCT2 (SLC22A2) (Homo sapiens)
# Sequence (O15244 1-555): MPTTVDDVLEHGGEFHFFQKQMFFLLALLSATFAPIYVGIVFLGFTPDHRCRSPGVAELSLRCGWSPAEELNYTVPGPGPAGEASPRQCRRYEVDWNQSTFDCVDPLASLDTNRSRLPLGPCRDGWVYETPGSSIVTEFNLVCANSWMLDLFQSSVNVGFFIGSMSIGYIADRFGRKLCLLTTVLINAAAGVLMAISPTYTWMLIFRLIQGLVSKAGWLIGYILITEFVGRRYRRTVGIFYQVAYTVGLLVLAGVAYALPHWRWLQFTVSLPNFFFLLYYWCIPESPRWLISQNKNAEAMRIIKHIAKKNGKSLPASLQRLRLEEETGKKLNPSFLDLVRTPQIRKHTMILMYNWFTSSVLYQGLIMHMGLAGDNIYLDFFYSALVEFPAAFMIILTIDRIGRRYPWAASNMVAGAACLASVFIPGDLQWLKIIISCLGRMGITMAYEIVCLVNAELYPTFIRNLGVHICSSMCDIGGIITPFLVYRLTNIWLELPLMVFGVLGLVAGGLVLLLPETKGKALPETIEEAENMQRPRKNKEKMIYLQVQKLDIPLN
# PROCEDURE_SUMMARY: Cellular uptake into OCT2-overexpressing HEK293 cells vs EV control cells (HPLC-MS/MS)
# MEASUREMENT_CONTEXT: OCT2, net uptake, Michaelis–Menten
Marks after values point to notes of the source that are not given here.
PROPERTY_MEASURED: v max (±SEM)

Known results for compounds:
> print(dat)
                                   compound                               val
1                          CC(C)[C@@H](N)CO   2488 (±573) pmol/mg protein/min
2                                  NCC(O)CN     110 (±56) pmol/mg protein/min
3  CCCC[C@H](N)CO [(S)-(+)-2-amino-1-hexanol]  786 (±72) ^b pmol/mg protein/min
4                                    NCCCCO  3103 (±1458) pmol/mg protein/min
5                                CCN(CC)CCO    794 (±109) pmol/mg protein/min

Which v max (±SEM) is reported for this compound? NCCCCCCO 16,933 (±2577) pmol/mg protein/min

Tell me the measured v max (±SEM) of CCCC[C@@H](N)CO [(R)-(−)-2-amino-1-hexanol] , please. 1342 (±84) ^b pmol/mg protein/min

---

# SUBJECT_OF_TEST: OCT3 (SLC22A3) (Homo sapiens, UniProt O75751)
# Sequence (O75751 1-556): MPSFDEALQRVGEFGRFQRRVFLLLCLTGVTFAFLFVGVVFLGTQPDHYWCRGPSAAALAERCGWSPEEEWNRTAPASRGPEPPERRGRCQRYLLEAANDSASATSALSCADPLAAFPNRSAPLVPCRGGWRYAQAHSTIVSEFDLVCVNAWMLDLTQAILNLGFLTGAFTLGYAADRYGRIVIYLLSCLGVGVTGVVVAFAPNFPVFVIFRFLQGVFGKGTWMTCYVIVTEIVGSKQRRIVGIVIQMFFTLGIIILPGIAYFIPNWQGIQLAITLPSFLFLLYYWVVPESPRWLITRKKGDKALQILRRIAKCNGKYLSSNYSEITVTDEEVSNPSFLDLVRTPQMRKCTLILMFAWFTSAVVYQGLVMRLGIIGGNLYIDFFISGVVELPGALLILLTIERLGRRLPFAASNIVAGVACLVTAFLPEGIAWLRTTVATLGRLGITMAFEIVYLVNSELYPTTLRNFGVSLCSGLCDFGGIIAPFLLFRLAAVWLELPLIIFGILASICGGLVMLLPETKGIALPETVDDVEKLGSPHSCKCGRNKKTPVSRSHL
# PROCEDURE_SUMMARY: Cellular uptake into OCT3-overexpressing HEK293 cells vs EV control cells (HPLC-MS/MS)
# MEASUREMENT_CONTEXT: 2.5 μM substrate (§), 2 min, HEK293
PROPERTY_MEASURED: uptake ratio OCT3 (transporter-overexpressing cells over EV control cells): mean (±SD, N)

> print(dat)
                                   compound           val
1  CCC[C@H](N)CO [(S)-(+)-2-amino-1-pentanol]  1.1 (0.2, 4)

Could you share what uptake ratio OCT3 (transporter-overexpressing cells over EV control cells): mean (±SD, N) was measured for NCCCCO [4-amino-1-butanol] , tested on OCT3 (SLC22A3) (Homo sapiens, UniProt O75751)? 1.1 (0.3, 3)

// map CCC(C)(C)N [tert-amylamine] to recorded uptake ratio OCT3 (transporter-overexpressing cells over EV control cells): mean (±SD, N) (system: OCT3 (SLC22A3) (Homo sapiens, UniProt O75751)) 0.8 (0.1, 3)

Requested read-out uptake ratio OCT3 (transporter-overexpressing cells over EV control cells): mean (±SD, N), target or system OCT3 (SLC22A3) (Homo sapiens, UniProt O75751), entry CC(C)(C)[C@H](N)CO [L-tert-Leucinol] 2.1 (0.5, 3)

Form entry - test system: OCT3 (SLC22A3) (Homo sapiens, UniProt O75751); read-out: uptake ratio OCT3 (transporter-overexpressing cells over EV control cells): mean (±SD, N); compound: CC(N)CCCC(C)(C)O (stereo not drawn) [heptaminol] 1.1 (0.29, 4)

Record lookup: for OCT3 (SLC22A3) (Homo sapiens, UniProt O75751), what uptake ratio OCT3 (transporter-overexpressing cells over EV control cells): mean (±SD, N) belongs to CC[C@H](C)[C@H](N)CO [(S)-(+)-isoleucinol] ? 0.9 (0.1, 4)
